Every entry's value here was drawn from patent US20150147342A1.

# STUDY_TARGET: T1, Dimeric fibrinogen-like domain of mouse (Mus musculus) Ang-2 conjugated to human IgG1 (mouse (Mus musculus))
# T1 construct: also called Dimeric Mouse Ang-2FD; Mouse Ang-2FD-hFc
# T1 sequence (chain, as listed by the source limits assumed): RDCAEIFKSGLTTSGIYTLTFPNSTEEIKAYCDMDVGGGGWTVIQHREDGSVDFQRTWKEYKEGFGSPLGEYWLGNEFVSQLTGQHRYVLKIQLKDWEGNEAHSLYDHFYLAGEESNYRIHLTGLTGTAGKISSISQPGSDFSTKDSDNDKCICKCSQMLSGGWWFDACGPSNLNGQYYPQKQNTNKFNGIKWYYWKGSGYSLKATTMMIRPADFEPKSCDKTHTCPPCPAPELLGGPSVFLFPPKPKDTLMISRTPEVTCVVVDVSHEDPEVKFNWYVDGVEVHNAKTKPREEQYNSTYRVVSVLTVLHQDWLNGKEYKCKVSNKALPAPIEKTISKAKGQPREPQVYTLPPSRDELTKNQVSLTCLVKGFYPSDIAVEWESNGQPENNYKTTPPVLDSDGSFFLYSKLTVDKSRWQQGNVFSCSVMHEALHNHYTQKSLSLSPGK
# EXPERIMENT: SPR, antibody captured, room temp
PROPERTY: T1/2 (min)
Answer with a number only, understood to be in min.

Consider the reported T1/2 for these binders:
1. H2M743N (antibody, V domains shown) VH: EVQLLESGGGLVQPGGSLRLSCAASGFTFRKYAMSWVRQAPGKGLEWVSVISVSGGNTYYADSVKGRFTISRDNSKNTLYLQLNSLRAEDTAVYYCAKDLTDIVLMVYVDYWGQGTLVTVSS VL: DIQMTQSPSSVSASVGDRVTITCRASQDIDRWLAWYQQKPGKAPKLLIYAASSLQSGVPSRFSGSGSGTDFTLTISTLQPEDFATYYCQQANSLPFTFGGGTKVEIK | 195
2. H2M749N (antibody, V domains shown, Hybridoma-derived chimeric antibody, mouse constant domains; also called H1M749N; H1M749) VH: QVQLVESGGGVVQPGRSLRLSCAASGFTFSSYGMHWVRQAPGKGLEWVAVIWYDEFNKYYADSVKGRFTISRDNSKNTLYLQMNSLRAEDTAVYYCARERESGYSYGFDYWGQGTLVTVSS VL: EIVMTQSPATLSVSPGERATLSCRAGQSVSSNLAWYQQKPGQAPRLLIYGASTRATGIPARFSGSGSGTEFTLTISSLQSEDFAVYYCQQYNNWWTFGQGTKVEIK | 25.5

query: # input binder: H1M732N (antibody, V domains shown) VH: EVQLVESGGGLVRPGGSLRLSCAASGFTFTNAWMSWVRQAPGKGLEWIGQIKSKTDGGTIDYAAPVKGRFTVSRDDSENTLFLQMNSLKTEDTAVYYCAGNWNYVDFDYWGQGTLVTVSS VL: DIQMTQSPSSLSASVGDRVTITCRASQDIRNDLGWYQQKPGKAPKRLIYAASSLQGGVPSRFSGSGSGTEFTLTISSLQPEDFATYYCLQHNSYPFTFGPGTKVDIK ; wanted: its T1/2
result: 21.4
